Exercise: for every item that follows, state its recorded log10 IC50.
tested on: NCI-H460; assay: Antiproliferative activity against human NCI-H460 cells; type: functional, cell-based
Numbered stars: 1 amine (or outer) side, 2 acyl side, 3 side chain; on linkers, the order of the positions; unused ones are H or OH. Square brackets hold non-standard residues; d marks the D form. Peptide text beside a SMILES is read from it. * marks the point of attachment. ξ: configuration not given here. Nva(5-pentanoyl) = CCCCC(=O)CCC[C@H](N)C(=O)O; NH((S)CH(Me)CH2NHC2H4OH) = C[C@@H](CNCCO)N*; Gly(octyl) = CCCCCCCC[C@H](N)C(=O)O; X2 = O=C([C@H](CCCCO)N[*:1])[*:2]; Ac3c = NC1(C(=O)O)CC1; Aib = CC(C)(N)C(=O)O; Butyryl = CCCC(=O)*; ξP = O=C(O)C1CCCN1; βAla = NCCC(=O)O
Base-10 log of IC50, unit nM.

Report log10 IC50 for CCCCCCCC[C@H](NC(=O)C(C)(C)NC(=O)C(C)(C)NC(=O)[C@H](CCCC(=O)CCCC)NC(=O)C1CCCN1C(=O)CCC)C(=O)N[C@@H](CC(C)C)C(=O)N[C@@H](C)C(=O)N[C@@H](CC(C)C)C(=O)NCCC(=O)N[C@@H](C)CNCCO (stereo partly drawn) (Butyryl-[ξP][Nva(5-pentanoyl)][Aib][Aib][Gly(octyl)]LAL[βAla]-{NH((S)CH(Me)CH2NHC2H4OH)}) please.
2.42

Report log10 IC50 for CCCCCCCC[C@H](NC(=O)C(C)(C)NC(=O)C(C)(C)NC(=O)[C@H](Cc1ccc(O)cc1)NC(=O)[C@@H]1CCCN1C(=O)CCC)C(=O)N[C@@H](CC(C)C)C(=O)NC(C)(C)C(=O)N[C@@H](CC(C)C)C(=O)NCCC(=O)N[C@@H](C)CNCCO (Butyryl-PY[Aib][Aib][Gly(octyl)]L[Aib]L[βAla]-{NH((S)CH(Me)CH2NHC2H4OH)}) please.
1.85

Report log10 IC50 for CCCCCCCC[C@H](NC(=O)C(C)(C)NC(=O)C(C)(C)NC(=O)C1(NC(=O)[C@@H]2CCCN2C(=O)CCC)CC1)C(=O)N[C@@H](CC(C)C)C(=O)NC(C)(C)C(=O)N[C@@H](CC(C)C)C(=O)NCCC(=O)N[C@@H](C)CNCCO (Butyryl-P[Ac3c][Aib][Aib][Gly(octyl)]L[Aib]L[βAla]-{NH((S)CH(Me)CH2NHC2H4OH)}) please.
1.94

Report log10 IC50 for CCCCCCCC[C@H](NC(=O)C(C)(C)NC(=O)[C@H](C)NC(=O)[C@H](CCCC(=O)CCCC)NC(=O)C1CCCN1C(=O)CCC)C(=O)N[C@@H](CC(C)C)C(=O)NC(C)(C)C(=O)N[C@@H](CC(C)C)C(=O)NCCC(=O)N[C@@H](C)CNCCO (stereo partly drawn) (Butyryl-[ξP][Nva(5-pentanoyl)]A[Aib][Gly(octyl)]L[Aib]L[βAla]-{NH((S)CH(Me)CH2NHC2H4OH)}) please.
1.64

Report log10 IC50 for CCCCCCCC[C@H](NC(=O)C(C)(C)NC(=O)C(C)(C)NC(=O)[C@H](CCCCO)NC(=O)[C@@H]1CCCN1C(=O)CCC)C(=O)N[C@@H](CC(C)C)C(=O)NC(C)(C)C(=O)N[C@@H](CC(C)C)C(=O)NCCC(=O)N[C@@H](C)CNCCO (Butyryl-P[X2][Aib][Aib][Gly(octyl)]L[Aib]L[βAla]-{NH((S)CH(Me)CH2NHC2H4OH)}) please.
1.65

Report log10 IC50 for CCCCCCCC[C@H](NC(=O)C(C)(C)NC(=O)C(C)(C)NC(=O)[C@H](Cc1c[nH]cn1)NC(=O)[C@@H]1CCCN1C(=O)CCC)C(=O)N[C@@H](CC(C)C)C(=O)NC(C)(C)C(=O)N[C@@H](CC(C)C)C(=O)NCCC(=O)N[C@@H](C)CNCCO (Butyryl-PH[Aib][Aib][Gly(octyl)]L[Aib]L[βAla]-{NH((S)CH(Me)CH2NHC2H4OH)}) please.
2.66
